Species on record: Homo sapiens
Assay: Inhibition of human topoisomerase 2-mediated pBR322 DNA relaxation at 20 uM after 30 mins by agarose gel electrophoresis
Calls of active or inactive are those of the source. The rule behind the calls is not given here.
A correct response names exactly one class from active, inactive

Request: Identify the outcome logged in this assay for the molecule shown: `O=C(O)CN1C(=O)/C(=C/c2nc3ccccc3n2CC(=O)c2ccc(F)cc2)SC1=S`
Response: active

Request: Another: `O=C(O)CN1C(=O)/C(=C/c2nc3ccccc3n2Cc2ccccc2)SC1=S`
Response: active

Request: Another: `O=C(O)CCN1C(=O)/C(=C/c2nc3ccccc3n2Cc2ccccc2F)SC1=S`
Response: inactive

Request: Another: `O=C(O)CN1C(=O)/C(=C/c2nc3ccccc3n2Cc2ccc(F)cc2)SC1=S`
Response: active

Request: Another: `Cc1ccc(C(=O)Cn2c(/C=C3\SC(=S)N(CC(=O)O)C3=O)nc3ccccc32)cc1`
Response: active

Request: Another: `CCn1c(/C=C2\SC(=S)N(CC(=O)O)C2=O)nc2ccccc21`
Response: inactive

Request: Another: `O=C1NC(=S)S/C1=C\c1nc2ccccc2n1Cc1ccccc1F`
Response: active

Request: Another: `O=C(O)CN1C(=O)/C(=C/c2nc3ccccc3n2Cc2cccc(F)c2)SC1=S`
Response: inactive

Request: Another: `Cc1ccc(Cn2c(/C=C3\SC(=S)NC3=O)nc3ccccc32)cc1`
Response: active

Request: Another: `Cc1ccc(Cn2c(/C=C3\SC(=S)N(CC(=O)O)C3=O)nc3ccc(F)cc32)cc1`
Response: active

Request: Another: `O=C(O)CN1C(=O)/C(=C/c2nc3ccccc3n2Cc2ccc(Br)cc2)SC1=S`
Response: active

Request: Another: `O=C(O)CN1C(=O)/C(=C/c2nc3ccc(Cl)cc3n2Cc2ccccc2F)SC1=S`
Response: active

Request: Another: `O=C(O)CN1C(=O)/C(=C/c2nc3ccccc3n2Cc2ccc(C(F)(F)F)cc2)SC1=S`
Response: active

Request: Another: COc1cc([C@@H]2c3cc4c(cc3[C@@H](O[C@@H]3O[C@@H]5CO[C@@H](C)O[C@H]5[C@H](O)[C@H]3O)[C@H]3COC(=O)[C@H]23)OCO4)cc(OC)c1O [ETOPOSIDE]
Response: active

Request: Another: `COc1ccc2c(c1)nc(/C=C1\SC(=S)N(CC(=O)O)C1=O)n2Cc1ccc(C)cc1`
Response: active

Request: Another: `COc1ccc2c(c1)nc(/C=C1\SC(=S)N(CC(=O)O)C1=O)n2Cc1ccccc1F`
Response: inactive

Request: Another: `N#Cc1ccc(Cn2c(/C=C3\SC(=S)N(CC(=O)O)C3=O)nc3ccccc32)cc1`
Response: inactive

Request: Another: `O=C(O)CN1C(=O)/C(=C/c2nc3ccccc3n2Cc2ccc(F)c(F)c2)SC1=S`
Response: active

Request: Another: `COc1cc(Cn2c(/C=C3\SC(=S)N(CC(=O)O)C3=O)nc3ccccc32)cc(OC)c1`
Response: active

Request: Another: `O=C(O)CN1C(=O)/C(=C/c2nc3ccccc3n2Cc2ccc([N+](=O)[O-])cc2)SC1=S`
Response: inactive

Request: Another: `O=C(O)CN1C(=O)/C(=C/c2nc3ccccc3n2Cc2ccc(Cl)cc2)SC1=S`
Response: active

Request: Another: `O=C(O)CN1C(=O)/C(=C/c2nc3ccccc3n2Cc2ccc(Br)cc2F)SC1=S`
Response: inactive
